Below: a set of entries, each annotated with reported IC50.
# assay_target: PDE9A2 (Homo sapiens)
# Construct: purchased Reaction Biology Corporation, Malvern, Pa
# Sequence (O76083 1-533 isoform O76083-2): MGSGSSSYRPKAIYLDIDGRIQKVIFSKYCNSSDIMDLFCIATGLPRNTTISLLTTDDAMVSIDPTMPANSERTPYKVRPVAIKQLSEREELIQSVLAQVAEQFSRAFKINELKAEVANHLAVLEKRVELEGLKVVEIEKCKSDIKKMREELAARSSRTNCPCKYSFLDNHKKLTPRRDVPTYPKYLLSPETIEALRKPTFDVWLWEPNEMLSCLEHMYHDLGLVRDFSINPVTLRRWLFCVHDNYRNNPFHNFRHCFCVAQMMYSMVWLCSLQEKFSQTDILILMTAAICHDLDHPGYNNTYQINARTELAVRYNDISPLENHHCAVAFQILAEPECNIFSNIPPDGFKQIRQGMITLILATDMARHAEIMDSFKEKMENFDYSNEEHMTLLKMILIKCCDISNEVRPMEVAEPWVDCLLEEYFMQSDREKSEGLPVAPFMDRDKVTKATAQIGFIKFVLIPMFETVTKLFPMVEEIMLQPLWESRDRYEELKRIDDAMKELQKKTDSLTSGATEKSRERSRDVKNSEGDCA
# method_notes: Phosphodiesterase enzyme screening assay, PDE9A2
# Format: biochemical
# test_settings: read-out: Band (PDE9A2 IC50)

> print(dat)
                                   compound           assay.target      result
1  CC1CN(Cc2ccccc2)CC1c1nn2c(-c3ccccc3)ncc2c(=O)[nH]1 (single isomer, unassigned; (+))  PDE9A2 (Homo sapiens)      < 1 µM
2  Cc1cc(F)c(F)cc1-c1ncc2c(=O)[nH]c(C3CN(Cc4nc5ccccn5n4)CC3C)nn12 (single isomer, unassigned; (+))  PDE9A2 (Homo sapiens)      < 1 µM
3  CC1CN(CC2CCN(C)CC2)CC1c1nn2c(C3CCOCC3)ncc2c(=O)[nH]1 (single isomer, unassigned; (+))  PDE9A2 (Homo sapiens)  1 to 10 µM
4  CC1CN(Cc2ccc(-c3ccccc3)cc2)CC1c1nn2c(C3CCOCC3)ncc2c(=O)[nH]1 (single isomer, unassigned; (-))  PDE9A2 (Homo sapiens)      < 1 µM
5  CC1CN(Cc2nc3ccccc3[nH]2)CC1c1nn2c(-c3ccc(F)cc3)ncc2c(=O)[nH]1 (single isomer, unassigned; (+))  PDE9A2 (Homo sapiens)      < 1 µM
6  CC1CN(Cc2cccnc2)CC1c1nn2c(-c3ccc(F)cc3)ncc2c(=O)[nH]1 (single isomer, unassigned; (+))  PDE9A2 (Homo sapiens)      < 1 µM

// moving on: another record for IC50
Please report IC50 for the following compound: CC1CN(Cc2ccccn2)CC1c1nn2c(-c3ccc(F)cc3)ncc2c(=O)[nH]1 (single isomer, unassigned; (+))
1 to 10 µM
